Every entry's value here was drawn from patent US20110172204A1.

SUBJECT_OF_TEST: human H3 receptor (Homo sapiens)
Sequence (Q9Y5N1 whole entry): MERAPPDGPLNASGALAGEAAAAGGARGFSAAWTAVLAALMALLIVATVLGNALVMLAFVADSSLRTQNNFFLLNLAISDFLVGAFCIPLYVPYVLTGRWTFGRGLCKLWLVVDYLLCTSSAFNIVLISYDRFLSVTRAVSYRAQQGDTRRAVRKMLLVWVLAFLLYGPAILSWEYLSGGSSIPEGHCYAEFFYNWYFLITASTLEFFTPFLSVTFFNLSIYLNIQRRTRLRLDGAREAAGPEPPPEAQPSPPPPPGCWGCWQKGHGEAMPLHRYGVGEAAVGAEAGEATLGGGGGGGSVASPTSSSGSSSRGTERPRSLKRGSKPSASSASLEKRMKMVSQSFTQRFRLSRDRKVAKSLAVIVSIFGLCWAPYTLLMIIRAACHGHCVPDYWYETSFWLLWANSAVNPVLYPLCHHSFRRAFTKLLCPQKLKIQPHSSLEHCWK
METHOD_DESCRIPTION: In vitro H3 functional assay (cAMP response element driven luciferase reporter)
Type: cell-based
Design: expressed in transfected cells
EXPERIMENTAL_SETUP: CHO(dhfr+)-cre-luc cells expressing human H3; forskolin 1 μM, RαMH 10 nM; read-out: hH3 functional IC50

| SMILES_REPR | IC50 |
| --- | --- |
| O=C(NCc1ccc2c(c1)CCN(C1CCC1)CC2)c1cnc(N2CCC(F)(F)CC2)nc1 | 3 nM |
| CO[C@H]1CCN(c2ncc(C(=O)NCc3ccc4c(c3)CCN(C3CCC3)CC4)cn2)C1 | 2 nM |
| CO[C@H]1CCN(c2ncc(C(=O)N(C)Cc3ccc4c(c3)CCN(C3CCC3)CC4)cn2)C1 | 2 nM |
| O=C(NCc1ccc2c(c1)CCN(C1CCC1)CC2)c1cnc(N2CCC(F)(F)C2)nc1 | 3 nM |
| CO[C@H](C)CN(C)c1ncc(C(=O)NCc2ccc3c(c2)CCN(C2CCC2)CC3)cn1 | 8 nM |
| CO[C@@H](C)CN(C)c1ncc(C(=O)NCc2ccc3c(c2)CCN(C2CCC2)CC3)cn1 | 2 nM |
| CO[C@@H]1CCN(c2ncc(C(=O)N(C)Cc3ccc4c(c3)CCN(C3CCC3)CC4)cn2)C1 | 6 nM |
| CO[C@@H]1CCN(c2ncc(C(=O)NCc3ccc4c(c3)CCN(C3CCC3)CC4)cn2)C1 | 1 nM |
| COC1CN(c2ncc(C(=O)NCc3ccc4c(c3)CCN(C3CCC3)CC4)cn2)C1 | 2 nM |

====

SUBJECT_OF_TEST: human H3 receptor (Homo sapiens)
METHOD_DESCRIPTION: In vitro H3 binding assay (3H-NαMH competition binding)
Design: expressed in transfected cells
EXPERIMENTAL_SETUP: membranes of CHO-K1 cells expressing human H3; inhibition of specific binding of 2 nM 3H-NαMH; read-out: hH3 binding IC50
pIC50: −log10 of the molar value.

| COMPOUND | pIC50 |
| --- | --- |
| CO[C@@H]1CCN(c2ncc(C(=O)NCc3ccc4c(c3)CCN(C3CCC3)CC4)cn2)C1 [Example 1] | 9.30 |
| O=C(NCc1ccc2c(c1)CCN(C1CCC1)CC2)c1cnc(N2CCC(F)(F)C2)nc1 [Example 4] | 8.70 |
| CO[C@@H](C)CN(C)c1ncc(C(=O)NCc2ccc3c(c2)CCN(C2CCC2)CC3)cn1 [Example 8] | 9.14 |
| CO[C@@H]1CCN(c2ncc(C(=O)N(C)Cc3ccc4c(c3)CCN(C3CCC3)CC4)cn2)C1 [Example 7] | 8.30 |
| CO[C@H]1CCN(c2ncc(C(=O)NCc3ccc4c(c3)CCN(C3CCC3)CC4)cn2)C1 [Example 2] | 8.70 |
| COC1CN(c2ncc(C(=O)NCc3ccc4c(c3)CCN(C3CCC3)CC4)cn2)C1 [Example 3] | 8.52 |
| O=C(NCc1ccc2c(c1)CCN(C1CCC1)CC2)c1cnc(N2CCC(F)(F)CC2)nc1 [Example 5] | 9.00 |
| CO[C@H](C)CN(C)c1ncc(C(=O)NCc2ccc3c(c2)CCN(C2CCC2)CC3)cn1 [Example 9] | 8.40 |
| CO[C@H]1CCN(c2ncc(C(=O)N(C)Cc3ccc4c(c3)CCN(C3CCC3)CC4)cn2)C1 [Example 6] | 8.40 |
